Origin of measurements: patent US20040204577A1

Tested on: peptide-forming enzyme (Mono S fraction enzyme)
method_description: Enzyme substrate specificity (1)-(10), (13), (14): peptide production
Type: biochemical, Empedobacter brevis
condition_details: L-amino acid methyl ester hydrochloride 100 mM, 150 mM L-glutamine, pH 9.0, 25° C., 3 hours
Where a SMILES comes first, the peptide text is derived from it.
measure: Formed peptide

NC(=O)CC[C@H](NC(=O)[C@@H](N)CCCN=C(N)N)C(=O)O [L-Arg-L-Gln] (H-Arg-Gln-OH) :: 7.1 mM
NCC(=O)N[C@@H](CCC(N)=O)C(=O)O [Gly-L-Gln] (H-Gly-Gln-OH) :: 54.7 mM
NC(=O)CC[C@H](NC(=O)[C@@H](N)Cc1ccc(O)cc1)C(=O)O [L-Tyr-L-Gln] (H-Tyr-Gln-OH) :: 3.4 mM
NC(=O)CC[C@H](NC(=O)[C@@H]1CCCN1)C(=O)O [L-Pro-L-Gln] (H-Pro-Gln-OH) :: 2.2 mM

### Prompt So what does the record say about Formed peptide for NC(=O)CC[C@H](NC(=O)C[C@H](N)C(=O)O)C(=O)O [β-L-Asp-L-Gln] ?
### Response tr

### Prompt Next molecule up: NCCCC[C@H](N)C(=O)N[C@@H](CCC(N)=O)C(=O)O [L-Lys-L-Gln] (H-Lys-Gln-OH)
### Response +
